Before we begin, note that these IC50 values for CRBN-DDB1 (Homo sapiens, UniProt Q96SW2) originate from several publications.

Examples with their reported IC50 follow.
INSERT INTO measurements (compound, assay_system, val) VALUES
  ('CC1(C)CCC(CN2CCN(Cc3ccc4c(c3F)CN(C3CCC(=O)NC3=O)C4=O)CC2)=C(c2ccc(F)cc2)C1 (stereo not shown)', 'CRBN-DDB1 (Homo sapiens, UniProt Q96SW2)', '500 nM'),
  ('Cc1nc2cccc(NCCCCCCCN3CCCN(C)CC3)c2c(=O)n1C1CCC(=O)NC1=O (stereo not shown)', 'CRBN-DDB1 (Homo sapiens, UniProt Q96SW2)', '1800 nM'),
  ('CC1(C)CCC(CN2C[C@H]3C[C@@H]2CN3Cc2ccc3c(c2)CN(C2CCC(=O)NC2=O)C3=O)=C(c2ccc(Cl)cc2)C1 (stereo partly shown)', 'CRBN-DDB1 (Homo sapiens, UniProt Q96SW2)', '190 nM'),
  ('Cc1nc2cccc(CN3CCN(CC45CC6CC(CC(C6)C4)C5)CC3)c2c(=O)n1C1CCC(=O)NC1=O (stereo not shown)', 'CRBN-DDB1 (Homo sapiens, UniProt Q96SW2)', '2240 nM'),
  ('CC1(C)CCC(C(=O)N2CCC(Sc3ccc4c(c3)CN(C3CCC(=O)NC3=O)C4=O)C(F)(F)C2)=C(c2ccc(Cl)cc2)C1 (stereo not shown)', 'CRBN-DDB1 (Homo sapiens, UniProt Q96SW2)', '1000 to 1900 nM');

INPUT: Please report the recorded IC50 for CC1(C)CCC(C(=O)N2CCC3(CC2)CC(Sc2ccc4c(c2)CN(C2CCC(=O)NC2=O)C4=O)C3)=C(c2ccc(Cl)cc2)C1 (stereo not shown) .
OUTPUT: 500 to 1000 nM

INPUT: Report IC50 for O=C1CCC(N2Cc3cc(OC4CCN(C(c5ccccc5)c5ccccc5)CC4)ccc3C2=O)C(=O)N1 (stereo not shown) please.
OUTPUT: < 500 nM

----------
Literature-derived IC50 for CRBN-DDB1 (Homo sapiens, UniProt Q96SW2) follows.
# unit: nM | format: bare number

Known IC50 results, listed for orientation:
INSERT INTO measurements (compound, assay_system, readout_unit, val) VALUES
  ('O=C1CCC(N2Cc3c(CN4CCN(CC5=C(c6ccc(F)cc6)CCCC5)CC4)cccc3C2=O)C(=O)N1 (centres unmarked)', 'CRBN-DDB1 (Homo sapiens, UniProt Q96SW2)', 'nM', 1290),
  ('CC1(C)CCC(C(=O)N2CC3CN(Cc4ccc5c(c4)CN(C4CCC(=O)NC4=O)C5=O)CC3C2)=C(c2ccc(Cl)cc2)C1 (centres unmarked)', 'CRBN-DDB1 (Homo sapiens, UniProt Q96SW2)', 'nM', 740),
  ('Cc1nc2cccc(NCCN3CCN(CCC45CC6CC(CC(C6)C4)C5)CC3)c2c(=O)n1C1CCC(=O)NC1=O (centres unmarked)', 'CRBN-DDB1 (Homo sapiens, UniProt Q96SW2)', 'nM', 1720),
  ('O=C1CCC(N2Cc3cc(C=C4CN(C(=O)c5ccccc5-c5ccc(Cl)cc5)C4)ccc3C2=O)C(=O)N1 (centres unmarked)', 'CRBN-DDB1 (Homo sapiens, UniProt Q96SW2)', 'nM', 330),
  ('O=C1CCC(c2ccc(N3CC[C@@H](C(=O)O)C3)cc2)C(=O)N1 (some centres unmarked)', 'CRBN-DDB1 (Homo sapiens, UniProt Q96SW2)', 'nM', 178),
  ('CC1(C)CCC(CN2C[C@@H]3C[C@H]2CN3Cc2ccc3c(c2)CN(C2CCC(=O)NC2=O)C3=O)=C(c2ccc(Cl)cc2)C1 (some centres unmarked)', 'CRBN-DDB1 (Homo sapiens, UniProt Q96SW2)', 'nM', 770),
  ('CC1(C)CCC(CN2C[C@H]3C[C@@H]2CN3Cc2ccc3c(c2F)CN(C2CCC(=O)NC2=O)C3=O)=C(c2ccc(Cl)cc2)C1 (some centres unmarked)', 'CRBN-DDB1 (Homo sapiens, UniProt Q96SW2)', 'nM', 240),
  ('CC1(C)CCC(CN2CCN(Cc3ccc4c(c3)CN(C3CCC(=O)NC3=O)C4=O)CC2)=C(c2cccs2)C1 (centres unmarked)', 'CRBN-DDB1 (Homo sapiens, UniProt Q96SW2)', 'nM', 1000),
  ('O=C1CCC(N2Cc3cc(CN4CCN(C(=O)c5ccccc5-c5ccc(Cl)cc5)CC4)ccc3C2=O)C(=O)N1 (centres unmarked)', 'CRBN-DDB1 (Homo sapiens, UniProt Q96SW2)', 'nM', 230),
  ('Cc1nc2cccc(NC34CC5CC(CC(C5)C3)C4)c2c(=O)n1C1CCC(=O)NC1=O (centres unmarked)', 'CRBN-DDB1 (Homo sapiens, UniProt Q96SW2)', 'nM', 2820);

INPUT: Entry O=C1CCC(N2Cc3cc(CN4CCN(Cc5ccccc5-c5ccc(F)cc5)CC4)cc(F)c3C2=O)C(=O)N1 (centres unmarked) , system CRBN-DDB1 (Homo sapiens, UniProt Q96SW2): what IC50 was measured?
OUTPUT: 720

INPUT: Form: Entry = O=C1CCC(N2Cc3cc(CCN4CCN(Cc5ccccc5-c5ccc(Cl)cc5)CC4)ccc3C2=O)C(=O)N1 (centres unmarked) | System = CRBN-DDB1 (Homo sapiens, UniProt Q96SW2) | IC50 = ____
OUTPUT: 120

INPUT: Request body: readout IC50, system CRBN-DDB1 (Homo sapiens, UniProt Q96SW2), query CC1(C)CCC(CN2CC(O)(C(O)c3ccc4c(c3)CN(C3CCC(=O)NC3=O)C4=O)C2)=C(c2ccc(F)cc2)C1 (centres unmarked) . Return the value.
OUTPUT: 670

INPUT: Short answer please: IC50, CRBN-DDB1 (Homo sapiens, UniProt Q96SW2), entry O=C1CCC(N2Cc3cc(CN4CCN(Cc5cccc(-c6ccc(Cl)cn6)c5)CC4)ccc3C2=O)C(=O)N1 (centres unmarked)
OUTPUT: 1340

INPUT: Item: CC1(C)CCC(CN2CC3(C2)CN(C(=O)c2ccc4c(c2)CN(C2CCC(=O)NC2=O)C4=O)C3)=C(c2ccc(F)cc2)C1 (centres unmarked) Test system: CRBN-DDB1 (Homo sapiens, UniProt Q96SW2) Read-out: IC50 Value: ?
OUTPUT: 720

INPUT: Give IC50 (CRBN-DDB1 (Homo sapiens, UniProt Q96SW2)) of the following compound: O=C1CCC(N2Cc3cc(CN4CCN(Cc5ccc(-c6ccco6)s5)CC4)ccc3C2=O)C(=O)N1 (centres unmarked)
OUTPUT: 230

INPUT: Report IC50 for CC1(C)CCC(CN2CC3CCC2CN3Cc2cc3c(cc2F)C(=O)N(C2CCC(=O)NC2=O)C3)=C(c2ccc(Cl)cc2)C1 (centres unmarked) tested on CRBN-DDB1 (Homo sapiens, UniProt Q96SW2).
OUTPUT: 1630

INPUT: What measured IC50 is associated with O=C1CCC(N2Cc3c(CN4CCC(Nc5ccccc5-c5ccc(Cl)cc5)CC4)cccc3C2=O)C(=O)N1 (centres unmarked) on CRBN-DDB1 (Homo sapiens, UniProt Q96SW2)?
OUTPUT: 390

INPUT: Param readout= IC50; system= CRBN-DDB1 (Homo sapiens, UniProt Q96SW2); entry= CC1(C)CCC(C(=O)N2CC3(CN(Cc4ccc5c(c4)CN(C4CCC(=O)NC4=O)C5=O)C3)C2)=C(c2ccc(F)cc2)C1 (centres unmarked) ; returns value.
OUTPUT: 560

INPUT: Find IC50 (CRBN-DDB1 (Homo sapiens, UniProt Q96SW2)) for the entry O=C1CCC(N2Cc3ccc(CN4CCN(C(=O)C5=C(c6ccc(F)cc6)CCCC5)CC4)cc3C2=O)C(=O)N1 (centres unmarked)
OUTPUT: 980
